Measured growth inhibition accompanies every entry in the list below.
- protocolText: NCI Yeast Anticancer Drug Screen. Data for the rad50 strain (AID 155);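 note: 0% = growth of vehicle-only cultures of the same strain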
- conditionSummary: S. cerevisiae rad50 strain growth inhibition; at 5.0 µM (retest, dose inferred, filed as 0.5); stronger effect = higher value
- Experimental: Growth inhibition of yeast strains with defined genetic alterations is measured as a screen for potential anti-cancer activity. Selected strains with alterations in DNA damage repair or cell cycle control were exposed to compounds and growth inhibition was measured relative to vehicle treated controls. The strain used in this assay is rad50
This is part of a sample that, as a whole, favours compounds with a hit. Of some 79,000 tested, about 15% had one in any assay.
Numbers only here, please. The scale is %.

Example entries and their recorded answers appear below.
[[record]]
compound = "CC1=C(CC/C(C)=C/CCC2(C)CCC([C@H](C)C(=O)O)OO2)C(C)(C)CCC1 (stereo partly specified) (tested in a mixture with another compound)"
measvalue = 18

[[record]]
compound = "CC1CC[N-]C(C)C1.CN(C)C=O.[Cl][Pt][Cl] (stereo unspecified)"
measvalue = 33


Exercise: What does the record list as growth inhibition for `c1ccc(N=c2snc(-c3ccccc3)s2)cc1` ?
Solution: 2

Exercise: Using the record for Nc1ccccc1O.O.O=C(O)C1[O][Sb][O]C1C(=O)O (stereo unspecified) , report its growth inhibition.
Solution: 19

Exercise: What does the record list as growth inhibition for `C[C@]12CC[C@H]3[C@@H](CCC4=CC(=O)CC[C@@H]43)[C@@H]1CC[C@@H]2OC(=O)N(CCCl)N=O` ?
Solution: 44

Exercise: What does the record list as growth inhibition for COc1cc(N(CC(C)Br)CC(C)Br)ccc1N=Nc1ccccc1C(=O)O (stereo unspecified) ?
Solution: 42

Exercise: Which growth inhibition value is on record for `COCCOCCOC(=O)CBr` ?
Solution: -2

Exercise: Fill in: growth inhibition of `CN(C)c1ccc(C2N(Cc3ccc(N(CCCl)CCCl)cc3)CCCN2Cc2ccc(N(CCCl)CCCl)cc2)cc1` is ___
Solution: 1

Exercise: State the recorded growth inhibition for this entry: Nc1cccc([As]=S)c1 (stereo unspecified)
Solution: 7

Exercise: Query: growth inhibition; subject: O=C(C[n+]1ccccc1)C1CCc2ccccc2C1 (stereo unspecified)
Solution: -3

Exercise: Using the record for `C[CH2][Sn]([Br])([CH2]C)[c]1ccccc1CN(C)C` , report its growth inhibition.
Solution: 30

---

- protocolText: NCI Yeast Anticancer Drug Screen. Data for the bub3 strain (AID 167)
- conditionSummary: S. cerevisiae bub3 mutant strain, at 50.0 µM
This is part of a sample that, as a whole, favours compounds with a hit. Of some 79,000 tested, about 15% had one in any assay. Active and inactive are the calls of the source. Rule as the data show it: active = growth inhibition above about 70%; inactive = the rest.
Give one outcome, nothing more. List: active, inactive

Take a look at these entries with their results.
[[record]]
compound = "S=c1[nH]c2ccccc2s1.[Pb]"
cat = "active"

[[record]]
compound = "CCC1CN2CCc3cc(OC)c(OC)cc3C2CC1CC1c2cc(OC)c(OC)cc2CCN1C(=O)C(N)Cc1ccccc1 (configuration not stated)"
cat = "inactive"

[[record]]
compound = "O=C1SCCC1NP(=O)(Oc1ccccc1)Oc1ccccc1 (configuration not stated)"
cat = "inactive"


Exercise: Returns: the outcome recorded for CC(NC1=NCCO1)c1ccco1 (configuration not stated) in this assay.
Solution: inactive

Exercise: Answer briefly: the call reported for `CCOC(=O)CC1=N/C(=N/C(=N)N[N+](=O)[O-])SC1` in this assay.
Solution: inactive

Exercise: Kindly provide the recorded test outcome for the following compound: `Nc1n[nH]c(CCc2nc(N)n[nH]2)n1`
Solution: inactive

Exercise: Recorded test call requested for `O=S1(=O)N2CN3CCN(C2)CN1C3`
Solution: inactive
